Entries annotated with measured IC50
Target: Sodium- and chloride-dependent GABA transporter 3 (Mus musculus, UniProt P31650)
Sequence (P31650 whole entry): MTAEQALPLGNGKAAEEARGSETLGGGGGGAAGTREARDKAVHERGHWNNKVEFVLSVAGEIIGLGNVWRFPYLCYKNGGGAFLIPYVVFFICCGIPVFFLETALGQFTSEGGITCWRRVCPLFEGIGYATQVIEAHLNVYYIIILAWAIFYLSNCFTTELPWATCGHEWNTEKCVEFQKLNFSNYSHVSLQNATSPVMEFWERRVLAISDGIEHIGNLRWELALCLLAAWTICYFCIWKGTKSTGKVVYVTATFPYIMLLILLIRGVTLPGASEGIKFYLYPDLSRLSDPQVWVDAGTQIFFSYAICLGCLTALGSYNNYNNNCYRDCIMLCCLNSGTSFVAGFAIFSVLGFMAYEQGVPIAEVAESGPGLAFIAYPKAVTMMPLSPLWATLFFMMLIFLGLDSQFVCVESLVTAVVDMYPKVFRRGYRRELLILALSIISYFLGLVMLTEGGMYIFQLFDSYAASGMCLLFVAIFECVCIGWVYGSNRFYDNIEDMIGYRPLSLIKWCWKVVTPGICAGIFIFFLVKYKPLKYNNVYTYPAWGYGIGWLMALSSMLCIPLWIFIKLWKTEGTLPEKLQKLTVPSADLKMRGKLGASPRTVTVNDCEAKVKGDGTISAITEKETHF
Assay: Inhibition of mouse GAT3-mediated [3H]GABA uptake stably transfected in HEK293 cells
OBSERVABLE: IC50 (µM)

• Cc1ccc(CNC(=O)[C@@H](C[C@@H](C)O)N2CCC(=C(c3ccccc3)c3ccccc3)CC2)cc1 = 57.5
• O=C(NCc1ccccc1Cl)C(CCO)N1CCC(=C(c2ccccc2)c2ccccc2)CC1 (centres undefined) = 56.2
• Cc1ccc(CNC(=O)C(CCO)N(C)CCC=C(c2ccccc2)c2ccccc2)cc1 (centres undefined) = 11.7
• C[C@@H](O)C[C@H](C(=O)NCc1ccc(F)cc1)N1CCC(=C(c2ccccc2)c2ccccc2)CC1 = 26.9
• CN(CCCC(c1ccccc1)c1ccccc1)C(CCO)C(=O)NCc1ccc(Cl)cc1 (centres undefined) = 13.2
• O=C(NCc1ccccc1)C(CCO)NCCCC(c1ccccc1)c1ccccc1 (centres undefined) = 35.5
• C[C@H](O)C[C@H](C(=O)NCc1ccc(Cl)cc1)N1CCC(=C(c2ccccc2)c2ccccc2)CC1 = 42.7
• CN(CCC=C(c1ccccc1)c1ccccc1)C(CCO)C(=O)NCc1ccc(Cl)cc1 (centres undefined) = 9.55
• O=C(NCc1ccc(Cl)cc1)C(CCO)N1CCC(C(c2ccccc2)c2ccccc2)CC1 (centres undefined) = 32.4
